Test system: 242566-281-R-J2-PDC complex spheroid viability;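 also: spheroids exposed to compound for 7 days before readout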
Assay: Anticancer human tumor 242566-281-R-J2-PDC patient-derived pancreatic carcinoma cell line growth inhibition [RAS]
Settings: curve of first compound; second compound 0.000949 µM
Description: RAS pathway inhibitors in Combinations in Complex Spheroids A high-throughput screen of multi-cell type tumor spheroids was designed to identify active combinations of RAS pathway inhibitors and targeted small molecules. Complex spheroids include a stromal component modeled by human endothelial cells (HUVEC) and fibroblasts modeled by human mesenchymal stem cells (MSCs). […] Compounds. […] If the clinical Cmax for an agent had not been determined, the highest concentration tested was 10 microM. […]
outcome-measure: pIC50
Please keep in mind that pIC50 is minus log10 of the molar concentration; only the number is needed.

Task: Find pIC50 (242566-281-R-J2-PDC complex spheroid viability) for the entry NC1c2ccccc2OC12CCN(c1cnc3c(N4CCCc5ncccc54)n[nH]c3n1)CC2 (configuration not stated) + CCn1c(-c2cccnc2C(C)OC)c2c3cc(ccc31)N1CCOC(CC(NC(=O)C(C(C)C)N(C)C(=O)C3(F)CCN(C(=O)C#CC(C)(C)N(C)C)CC3)C(=O)N3CCCC(N3)C(=O)OCC(C)(C)C2)C1
Result: 5.64
